Data origin, for the record: ChEMBL document CHEMBL3526018

Test system: CYP3A4 (Homo sapiens)
experiment: Activity of human recombinant CYP3A4 assessed as ((3R,4S,5S,6R)-4-((2R,3R)-3-((E)-4-hydroxy-3-methylbut-2-en-1-yl)-2-methyloxiran-2-yl)-5-methoxy-1-oxaspiro[2.5]octan-6-yl((R)-1-amino-3-methyl-1-oxobutan-2-yl)carbamate) formation
experimental-context: recombinant enzyme
reported-endpoint: Km (µM)
Provide the reading as a plain figure in µM.

Return Km measured with CYP3A4 (Homo sapiens) given this compound: CO[C@@H]1[C@H](OC(=O)N[C@@H](C(N)=O)C(C)C)CC[C@]2(CO2)[C@H]1[C@@]1(C)O[C@@H]1CC=C(C)C [PPI-2458]
15
